- experiment_notes: AUC(0 to t) in CD-1 mouse at 2 mg/kg, iv
- Format: ADME, organism-based
- Parameters: dose 2 mg/kg
- condition_details: in vivo
assay_metric: AUC(0-t) (µM·h)

INSERT INTO assay_data (smiles_record, assay_metric, value_units, value) VALUES
  ('CC(C)S(=O)(=O)c1ccc(S(=O)(=O)N2CCC[C@@H](C(=O)N3CCC(F)(F)CC3)C2)cc1', 'AUC(0-t)', 'µM·h', 0.65);

###

- experiment_notes: Terminal elimination half life in CD-1 mouse at 2 mg/kg, iv
- Type: ADME, organism-based
- condition_details: in vivo, read-out: LambdaZ (converted)
assay_metric: half-life

INSERT INTO measurements (smiles_record, assay_metric, value) VALUES
  ('CC(C)S(=O)(=O)c1ccc(S(=O)(=O)N2CCC[C@@H](C(=O)N3CCC(F)(F)CC3)C2)cc1', 'half-life', '1.42 h');

###

Entries and their measured half-life at 10 µM follow.
- experiment_notes: Metabolic stability in human liver microsomes assessed as half life at 10 uM measured up to 60 mins in presence of NADPH by LC-MS/MS analysis
- Assay type: ADME, Microsome
- condition_details: liver microsomes
assay_metric: half-life at 10 µM (min)

INSERT INTO assay_data (smiles_record, comparison_symbol, value) VALUES
  ('CC(C)S(=O)(=O)c1ccc(S(=O)(=O)N2CCC[C@@H](C(=O)N3CCC(F)(F)CC3)C2)cc1', '>', 60),
  ('O=C([C@@H]1CCCN(S(=O)(=O)c2ccc(S(=O)(=O)C3CCC3)cc2)C1)N1CCC(F)(F)CC1', '>', 60),
  ('O=C([C@@H]1CCCN(S(=O)(=O)c2ccc(S(=O)(=O)N3CC[C@@H](O)C3)cc2)C1)N1CCC(F)(F)CC1', '=', 31),
  ('CCN(CC)S(=O)(=O)c1ccc(S(=O)(=O)N2CCC[C@@H](C(=O)N3CCC(F)(F)CC3)C2)cc1', '=', 2.74),
  ('CN(C)S(=O)(=O)c1ccc(S(=O)(=O)N2CCC[C@@H](C(=O)N3CCC(F)(F)CC3)C2)cc1', '>', 60);

###

Entries and their measured IC50 follow.
- System: MIA PaCa-2
- experiment_notes: Cytotoxicity against human MIA PaCa-2 cells assessed as inhibition of cell growth incubated for overnight in glucose-containing medium followed by compound addition and measured after 7 days by MTT assay
- Type: functional, cell-based
- condition_details: MIA PaCa-2, 168 h
assay_metric: IC50 (nM)

INSERT INTO measurements (smiles_record, assay_metric, value) VALUES
  ('O=C([C@@H]1CCCN(S(=O)(=O)c2ccc(S(=O)(=O)C3COC3)cc2)C1)N1CCC(F)(F)CC1', 'IC50', 110),
  ('CCN(CC)S(=O)(=O)c1ccc(S(=O)(=O)N2CCC[C@@H](C(=O)N3CCC(O)CC3)C2)cc1', 'IC50', 870),
  ('CCC(CC)S(=O)(=O)c1ccc(S(=O)(=O)N2CCC[C@@H](C(=O)N3CCC(F)(F)CC3)C2)cc1', 'IC50', 13),
  ('CCN(CC)S(=O)(=O)c1ccc(S(=O)(=O)N2CCC[C@@H](C(=O)N3CCS(=O)(=O)CC3)C2)cc1', 'IC50', 900);
